assay: Cytotoxicity against human neutrophils assessed as cell viability at 30 uM incubated for 24 hrs by MTT assay; format: cell-based, Neutrophil; details: read-out: Activity
OUTCOME MEASURE: viability at 24 h, 30 µM (%)

# CHEMICAL STRUCTURE, NUMERIC RESULT
records = [
    ("C/C(=C\\CC[C@]1(C)CCc2cc(O)cc(C)c2O1)CC/C=C(\\C)C(=O)O", 89.2),
]

* * *

target: Peroxisome proliferator-activated receptor alpha (Homo sapiens) (UniProt Q07869); test: Agonist activity at human PPARalpha expressed in African green monkey COS7 cells assessed as increase in receptor transcriptional activity at 10 uM by luciferase reporter gene assay relative to WY-14643; type: cell-based
Sequence (Q07869 whole entry): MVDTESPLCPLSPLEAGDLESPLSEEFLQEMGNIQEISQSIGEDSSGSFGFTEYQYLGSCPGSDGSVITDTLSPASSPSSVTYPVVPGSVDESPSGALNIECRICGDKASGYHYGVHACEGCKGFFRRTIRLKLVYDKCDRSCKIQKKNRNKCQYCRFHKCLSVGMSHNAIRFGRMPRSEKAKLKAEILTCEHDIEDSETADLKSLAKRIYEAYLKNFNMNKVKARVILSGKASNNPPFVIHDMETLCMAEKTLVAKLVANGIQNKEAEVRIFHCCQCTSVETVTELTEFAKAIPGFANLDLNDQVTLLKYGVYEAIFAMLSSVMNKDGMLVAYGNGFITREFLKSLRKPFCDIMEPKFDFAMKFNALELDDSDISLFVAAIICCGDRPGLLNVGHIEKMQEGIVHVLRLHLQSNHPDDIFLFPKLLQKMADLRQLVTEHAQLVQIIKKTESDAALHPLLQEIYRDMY
Active and inactive are the calls of the source. No cut-off for these calls is given here.
OUTCOME MEASURE: Efficacy

# COMPOUND, OUTCOME MEASURE, RESULT
rows = [
    ("C/C(=C\\CC[C@]1(C)CCc2cc(O)cc(C)c2O1)CC/C=C(\\C)C(=O)O", "Efficacy", "107%"),
    ("CCCOC(=O)/C(C)=C/CC/C(C)=C/CC[C@]1(C)CCc2cc(O)cc(C)c2O1", "Efficacy", "49%"),
    ("CN(CCOc1ccc(CC2SC(=O)NC2=O)cc1)c1ccccn1 (stereo not drawn)", "Efficacy", "inactive"),
    ("COc1cc(C)c2c(c1)CC[C@@](C)(CC/C=C(\\C)CC/C=C(\\C)C(=O)O)O2", "Efficacy", "82%"),
    ("COC(=O)COC(=O)/C(C)=C/CC/C(C)=C/CC[C@]1(C)CCc2cc(OC(=O)c3ccccc3)cc(C)c2O1", "Efficacy", "14%"),
    ("COC(=O)COC(=O)/C(C)=C/CC/C(C)=C/CC[C@]1(C)CCc2cc(OC)cc(C)c2O1", "Efficacy", "39%"),
    ("CCCOc1cc(C)c2c(c1)CC[C@@](C)(CC/C=C(\\C)CC/C=C(\\C)C(=O)O)O2", "Efficacy", "191%"),
    ("Cc1cc(SCc2sc(-c3ccc(C(F)(F)F)cc3)nc2C)ccc1OCC(=O)O", "Efficacy", "inactive"),
    ("C/C(=C\\CC[C@]1(C)CCc2cc(OCC(N)=O)cc(C)c2O1)CC/C=C(\\C)C(=O)OCc1ccccc1", "Efficacy", "18%"),
    ("COC(=O)/C(C)=C/CC/C(C)=C/CC[C@]1(C)CCc2cc(O)cc(C)c2O1", "Efficacy", "27%"),
    ("C/C(=C\\CC[C@]1(C)CCc2cc(OCc3ccccc3)cc(C)c2O1)CC/C=C(\\C)C(=O)OCc1ccccc1", "Efficacy", "28%"),
    ("CC1=C(/C=C/C(C)=C\\C=C\\C(C)=C\\C(=O)O)C(C)(C)CCC1", "Efficacy", "inactive"),
    ("COC(=O)C(OC(=O)/C(C)=C/CC/C(C)=C/CC[C@]1(C)CCc2cc(OC)cc(C)c2O1)C(=O)OC", "Efficacy", "76%"),
]
